Each recorded value in this set is attributed to PubChem BioAssay (NCATS).

Test system: WaGa
Assay: qHTS assay to identify novel small-molecules to repurpose for Merkel cell carcinoma treatment (AID 1296009); further: nearly all actives have a fitted effect of over 60% in size
Conditions: MCC and control cell lines, CellTiter-Glo viability, 72 h; series mostly up to 46 µM
Records with an inconclusive call do not appear. Calls of active or inactive are those of the source. The call rests on the fitted dose curve; in most records, active means well fitted inhibition curve with a large enough effect; inconclusive means small, poorly fitted or top-dose-only effect; inactive means flat fitted curve, though single readings scatter.
Form entry, call: pick from 1 = active, -1 = inactive

Look over these answered cases.
- CCCc1nc(C(C)(C)O)c(C(=O)O)n1Cc1ccc(-c2ccccc2-c2nn[nH]n2)cc1: -1
- CC(C)N1[N]C(=C2C=c3cc(O)ccc3=N2)c2c(N)ncnc21: 1
- CCOC(=O)C1=C(C)NC(=S)NC1c1cccc(O)c1 (centres undefined): 1
- CC(C)N(CC[C@H](c1ccccc1)c1cc(CO)ccc1O)C(C)C: -1
- O=[N+]([O-])c1cn2c(n1)OC[C@@H](OCc1ccc(OC(F)(F)F)cc1)C2: -1

Just curious, what result did O=C(CN1C(=O)C2(CCCC2)NC[C@H]1c1cc(F)cc(F)c1)Nc1ccc2c(c1)C[C@@]1(C2)C(=O)Nc2ncccc21 get here?
-1

Test call for this compound, please: C[C@H](NC(=O)Cc1cc(F)cc(F)c1)C(=O)N[C@H](C(=O)OC(C)(C)C)c1ccccc1
-1

Can you look up the reported call for C#CCC(Cc1cnc2nc(N)nc(N)c2n1)c1ccc(C(=O)N[C@@H](CCC(=O)O)C(=O)O)cc1 (some centres undefined) for me?
1

Please indicate how the test categorized CN1[C@H]2CC(OC(=O)[C@@H](CO)c3ccccc3)C[C@H]1[C@H]1O[C@H]12 (some centres undefined) .
-1

###

Experiment: Quantitative High-Throughput drug screen in 47 multiple myeloma cell lines against the NCATS MIPE library collection: UTMC2_PLB cell viability assay (AID 1919868); further: nearly all actives have a fitted effect of over 55% in size
Conditions: CellTiter-Glo ATP luminescence, 48 h
Records with an inconclusive call do not appear. Active and inactive are the calls of the source. The call rests on the fitted dose curve; in most records, active means well fitted cell-killing curve with a large enough effect; inconclusive means small, poorly fitted or top-dose-only effect, or effect the other way; inactive means no such curve, though single readings can be large or run the other way.
Would you mind answering with one of these outcomes? active, inactive

- O=C(Nc1ccc(Oc2ccnc3[nH]ccc23)c(F)c1)c1cccn(-c2ccc(F)cc2)c1=O: inactive
- CN(C)CCN1C(=O)c2cccc3cc(N)cc(c23)C1=O: active
- CCNC(=O)c1cc2c(-c3cc(OCCN4CCCC4)c(Cl)cc3Cl)nc(N)nc2s1: active
- CCC(C=C[C@@H]1OC(=O)C=C[C@H]1C)=C[C@H](C)CC=CC(C)=C[C@@H](C)C(=O)[C@@H](C)[C@H](O)[C@@H](C)CC(C)=CC(=O)O: active

Kindly provide the recorded test outcome for the following compound: CO[C@@H]1[C@@H](O)[C@H](O)[C@@H](n2c3c(Cl)cccc3c3c4c(c5c6cccc(Cl)c6[nH]c5c32)C(=O)NC4=O)O[C@@H]1CO
active

State the result this test recorded for Cn1c(Nc2ccc(C(F)(F)F)cc2)nc2cc(Oc3ccnc(-c4ncc(C(F)(F)F)[nH]4)c3)ccc21 .
active

Any idea what this test logged for Oc1cc(-c2nc(-c3ccccc3)[nH]c2-c2ccncc2)ccc1Cl ?
active

Per the records of this test, what outcome belongs to FC(F)c1nc2ccccc2n1-c1nc(N2CCOCC2)nc(N2CCOCC2)n1 ?
active

###

Assay: P-glycoprotein substrates identified in KB-3-1 adenocarcinoma cell line, qHTS therapeutic library screen (AID 1346986); further: nearly all actives have a fitted effect of over 60% in size
Conditions: KB-3-1 parental cells viability, CellTiter-Glo, 72 h; series mostly up to 44.5 µM
Records with an inconclusive call do not appear. Active and inactive are the calls of the source. Calls come from the whole dose curve; as a rule, active = well fitted inhibition curve with a large enough effect; inconclusive = small, poorly fitted or top-dose-only effect; inactive = no such curve, though single readings can be large or run the other way.
Hi! Could you answer with just one of these? active, inactive

* CON=C(C(=O)N[C@@H]1C(=O)N2C(C(=O)O)=C(Cn3ccc(=N)n3CCO)CS[C@H]12)c1csc(N)n1 | inactive
* CC(C)N(CC[C@H](c1ccccc1)c1cc(CO)ccc1O)C(C)C | inactive

// outcome(item) with item = COc1cc(C)c(C=CC(C)=CC=CC(C)=CC(=O)O)c(C)c1C
inactive

So what was the verdict on O=C(C[C@@H]1CC=CCCC(=O)O[C@H](c2ccccc2)CNC1=O)NCc1ccc(Cl)cc1 in this test?
inactive

Assay result, entry CCc1ccc(C(=O)Nc2cc(CN3CCN(C)CC3)cc(C(F)(F)F)c2)cc1C#Cc1cnc2ccnn2c1 — outcome?
active

###

Biological target: Calcium and integrin-binding protein 1 (Homo sapiens)
Test: Confirmatory qHTS for Identification of Calcium Integrin Binding Protein 1 (CIB1) Competitor (AID 1508617); further: nearly all actives have a fitted effect of over 65% in size
Details: CIB1 binding competition assay, biochemical qHTS; series mostly up to 114 µM
Inconclusive results are not listed. Calls of active or inactive are those of the source. Calls follow the shape of the dose curve; as a rule, active = well fitted inhibition curve with a large enough effect; inconclusive = small, poorly fitted or top-dose-only effect; inactive = no such curve, though single readings can be large or run the other way.
// one of Y for active, N for inactive, no free text

The following molecules have reported results that may help.
* CN1CCCN(C(=O)c2cccc(-c3ccc(C=C4C(=O)Nc5ccc(Cl)cc54)o3)c2)CC1 | Y
* Cc1coc2c1C(=O)C(=O)c1c-2ccc2c(C)cccc12 | Y
* CN(C)CCN1C(=O)c2cccc3cc(N)cc(c23)C1=O | N

Recorded test outcome, item O=C1c2cccc(O)c2C(=O)c2c(O)cc(CO)cc21
N

###

Assay: Quantitative High-Throughput drug screen in 47 multiple myeloma cell lines against the NCATS MIPE library collection: JIM3_ECACC cell viability assay (AID 1918963; further: nearly all actives have a fitted effect of over 35% in size)
Conditions: JIM3 myeloma viability, CellTiter-Glo ATP, 48 h; series mostly up to 45.8 µM
Records with an inconclusive call do not appear. The source made the active and inactive calls. Calls come from the whole dose curve; as a rule, active = well fitted cell-killing curve with a large enough effect; inconclusive = small, poorly fitted or top-dose-only effect; inactive = no such curve, though single readings can be large or run the other way.
Please state which outcome applies, choosing from active, inactive

• CN(C)c1ccc2cc(C(=O)N[C@@H](CCCN=C(N)CCl)C(=O)NCc3ccccc3)ccc2c1 = active

Per the assay record, what outcome was assigned to C=C1C[C@@]2(O)O[C@@]3(C[C@H]2C(C)C)[C@H](C)CC[C@H]13 ?
inactive

Just curious, what result did CN[C@@H]1C[C@H]2O[C@@](C)([C@H]1OC)n1c3ccccc3c3c4c(c5c6ccccc6n2c5c31)C(=O)N[C@H]4O get here?
active

Hi, do you know how CC(C)(O)CC[C@@H](O)[C@](C)(O)[C@H]1CC[C@@]2(O)C3=CC(=O)[C@@H]4C[C@@H](O)[C@@H](O)C[C@]4(C)[C@@H]3CC[C@]12C came out in this test?
inactive

So what was the verdict on CN(CC(=O)N(Cc1ccc(C2CCCCC2)cc1)c1ccc(C(=O)O)c(O)c1)S(=O)(=O)c1c(F)c(F)c(F)c(F)c1F in this test?
active

Assay outcome for COc1ccc(C[C@@H](C)[C@@H](C)Cc2ccc(OC)c(OC)c2)cc1OC : what was it?
active

Please let me know the test result on file for N#Cc1ccc(COC[C@H]2O[C@@H](n3c(NCc4ccc(Cl)c(Cl)c4)nc4c(N)ncnc43)[C@@H](O)[C@@H]2O)cc1 .
active

Returns: the outcome recorded for C=CC(=O)Nc1cccc(Nc2nc(NC3CCC(N(C)C)CC3)nc3c2ncn3C(C)C)c1 (stereo not drawn) in this assay.
active

###

Test: qHTS of pediatric cancer cell lines to identify multiple opportunities for drug repurposing: Confirmatory screen for Rh41 cells (AID 1347123);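 further: 48 h compound exposure; nearly all actives have a fitted effect of over 60% in size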; further: potency means the concentration at half of the fitted maximal effect
Conditions: Rh41 rhabdomyosarcoma cells, viability/cytotoxicity qHTS; series mostly up to 45.9 µM
Results filed as inconclusive are left out. Activity calls are given as the source filed them. Calls follow the shape of the dose curve; as a rule, active = well fitted cell-killing curve with a large enough effect; inconclusive = small, poorly fitted or top-dose-only effect; inactive = no such curve, though single readings can be large or run the other way.
quantity.kind: Potency

Here's what some known entries look like.
* Cc1[nH]c(C=C2C(=O)Nc3ccccc32)c(C)c1CCC(=O)O | inactive
* CC(=O)O[C@H]1C[C@@H]2CC[C@H]3[C@H]4C[C@H]([N+]5(C)CCCCC5)[C@@H](OC(C)=O)[C@@]4(C)CC[C@@H]3[C@@]2(C)C[C@H]1N1CCCCC1 | 7.37 µM (active)
* CNC(=O)c1ccc(Nc2cc(Nc3ccccc3S(=O)(=O)C(C)C)c3cc[nH]c3n2)nc1 | 5.85 µM (active)
* COc1cc2c(cc1OC)[C@@H]1C(=O)c3ccc4c(c3O[C@@H]1CO2)C=CC(C)(C)O4 | 13.1 µM (active)
* CCC(C=C[C@@H]1OC(=O)C=C[C@H]1C)=C[C@H](C)CC=CC(C)=C[C@@H](C)C(=O)[C@@H](C)[C@H](O)[C@@H](C)CC(C)=CC(=O)O | 0.0128 µM (active)

Report Potency for every entry below.
1. Cc1cnc(Nc2ccc(N3CCN(C)CC3)cc2)nc1Nc1cccc(S(=O)(=O)NC(C)(C)C)c1
2. CC1(C)O[C@@H]2C[C@H]3[C@@H]4CCC5=CC(=O)C=C[C@]5(C)[C@@H]4[C@@H](O)C[C@]3(C)[C@]2(C(=O)CO)O1

["3.29 µM (active)", "inactive"]

###

Test: qHTS of pediatric cancer cell lines to identify multiple opportunities for drug repurposing: Primary screen for A673 cells (AID 1347092); further: potency means the concentration at half of the fitted maximal effect; nearly all actives have a fitted effect of over 45% in size
Conditions: A673 Ewing sarcoma viability, CellTiter-Glo ATP luminescence, 48 h; series mostly up to 46 µM
Results filed as inconclusive are left out. The source made the active and inactive calls. Calls come from the whole dose curve; as a rule, active = well fitted cell-killing curve with a large enough effect; inconclusive = small, poorly fitted or top-dose-only effect; inactive = no such curve, though single readings can be large or run the other way.
Assign Potency to each entry below.

Solved cases (5 shown):
• CCCNC(=O)[C@H]1O[C@H]1C(=O)N[C@H](C(=O)N1CCC[C@@H]1C(=O)OC)C(C)CC (stereo partly drawn) = 2350 nM (active)
• Cc1ccc([N+](=O)[O-])cc1S(=O)(=O)N(C)N=Cc1cnc2ccc(Br)cn12 = 7.4 nM (active)
• CC(=O)O[C@]1(C(C)=O)CC[C@H]2[C@@H]3C=C(C)C4=CC(=O)CC[C@]4(C)[C@@H]3CC[C@@]21C = 2350 nM (active)
• C=CC(=O)Nc1cccc(Nc2nc(NC3CCC(N(C)C)CC3)nc3c2ncn3C(C)C)c1 (stereo not drawn) = 11.8 nM (active)
• COc1cc(OC)c(C=CS(=O)(=O)Cc2ccc(OC)c(NCC(=O)O)c2)c(OC)c1 = 148 nM (active)

I would be grateful if you could provide Potency for each of the following entries.
1. Cc1[nH]c(C=C2C(=O)Nc3ccccc32)c(C)c1CCC(=O)O
2. COc1cc(CCc2cc(NC(=O)c3ccc(N4C[C@@H](C)N[C@@H](C)C4)cc3)n[nH]2)cc(OC)c1

1: 1180 nM (active); 2: 14800 nM (active)

Sure, the documented Potency for CN[C@H]1[C@@H](O)[C@@H]2O[C@@H]3O[C@H](C)CC(=O)[C@]3(O)O[C@@H]2[C@@H](NC)[C@H]1O is 74.3 nM (active)
